- ASSAYED TARGET: Mitogen-activated protein kinase 14 (Homo sapiens)
- Sequence (Q16539 whole entry): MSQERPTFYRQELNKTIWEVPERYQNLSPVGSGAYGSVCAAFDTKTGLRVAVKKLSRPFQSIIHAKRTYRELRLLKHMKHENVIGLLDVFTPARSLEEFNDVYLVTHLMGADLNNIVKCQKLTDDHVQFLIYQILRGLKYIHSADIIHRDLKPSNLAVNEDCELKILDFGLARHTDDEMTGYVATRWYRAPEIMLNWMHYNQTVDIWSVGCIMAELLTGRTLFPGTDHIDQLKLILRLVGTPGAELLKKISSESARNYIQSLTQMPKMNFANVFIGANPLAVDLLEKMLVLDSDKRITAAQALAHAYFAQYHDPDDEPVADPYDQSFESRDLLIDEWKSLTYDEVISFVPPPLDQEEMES
- ASSAY METHOD TEXT: Inhibition of p38alpha
OBSERVATION TYPE: IC50 (nM)
Response body: numeric value in nM, unit text excluded.

Given the compound O=c1[nH]c(-c2ccc(F)cc2)c(-c2ccnc(N[C@H]3CC[C@H](O)CC3)c2)[nH]1 , what is its reported IC50? 23

Given the compound CC(C)[C@H](C)Nc1cc(-c2[nH]c(=O)[nH]c2-c2ccc(F)cc2)ccn1 , what is its reported IC50? 49

Given the compound O=c1[nH]c(-c2ccncc2)c(-c2ccc(F)cc2)[nH]1 , what is its reported IC50? 468

Given the compound C[C@@H](Nc1cc(-c2[nH]c(=O)[nH]c2-c2ccc(F)cc2)ccn1)c1ccccc1 , what is its reported IC50? 324
